molecular target: Cyclin-dependent kinase 2/cyclin E1 (Homo sapiens, UniProt P24941); assay: Inhibition of human CDK2/cyclin E
pEC50: −log10 of the molar value.

>  <Input smiles>
CC(C)N1CCN(c2ccc(Nc3ncc4cc5n(c4n3)C3(CCCCC3)CNC5=O)nc2)CC1

>  <Study system>
Cyclin-dependent kinase 2/cyclin E1 (Homo sapiens, UniProt P24941)

>  <pEC50>
> 7.00

$$$$

* * *

molecular target: Receptor-type tyrosine-protein kinase FLT3 (Homo sapiens, UniProt P36888, ITD); assay: Binding affinity to human FLT3 ITD mutant
Sequence (P36888 whole entry, looked up, change not shown): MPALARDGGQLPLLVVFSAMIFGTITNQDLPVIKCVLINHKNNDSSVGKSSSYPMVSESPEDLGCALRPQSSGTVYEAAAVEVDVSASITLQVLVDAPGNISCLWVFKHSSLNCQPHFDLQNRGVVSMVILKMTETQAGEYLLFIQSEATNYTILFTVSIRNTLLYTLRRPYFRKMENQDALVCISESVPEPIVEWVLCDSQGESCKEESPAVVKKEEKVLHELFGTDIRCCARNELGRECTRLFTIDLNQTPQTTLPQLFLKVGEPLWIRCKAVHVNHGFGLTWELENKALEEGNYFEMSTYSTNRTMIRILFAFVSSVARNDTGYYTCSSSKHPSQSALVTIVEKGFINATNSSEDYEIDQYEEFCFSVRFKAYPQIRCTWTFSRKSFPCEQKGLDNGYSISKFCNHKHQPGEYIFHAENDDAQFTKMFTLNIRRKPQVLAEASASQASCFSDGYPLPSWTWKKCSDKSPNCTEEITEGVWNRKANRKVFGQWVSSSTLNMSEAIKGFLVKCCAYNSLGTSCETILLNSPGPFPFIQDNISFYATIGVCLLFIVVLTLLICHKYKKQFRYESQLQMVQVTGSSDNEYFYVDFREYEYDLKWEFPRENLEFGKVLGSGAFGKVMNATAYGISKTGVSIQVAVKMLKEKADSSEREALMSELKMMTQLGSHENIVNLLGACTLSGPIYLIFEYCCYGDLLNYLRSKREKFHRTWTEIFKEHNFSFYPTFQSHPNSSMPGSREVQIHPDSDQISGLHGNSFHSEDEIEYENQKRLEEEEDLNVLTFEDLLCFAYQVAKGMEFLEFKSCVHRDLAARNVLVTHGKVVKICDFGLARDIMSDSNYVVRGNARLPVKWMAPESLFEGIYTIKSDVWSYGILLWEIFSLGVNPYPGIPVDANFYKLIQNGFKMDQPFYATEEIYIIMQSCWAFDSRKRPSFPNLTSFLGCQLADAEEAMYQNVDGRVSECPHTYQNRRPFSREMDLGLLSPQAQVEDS
pKd: −log10 of the molar value.

>  <Input smiles>
CC(C)N1CCN(c2ccc(Nc3ncc4cc5n(c4n3)C3(CCCCC3)CNC5=O)nc2)CC1

>  <pKd>
8.19

$$$$

* * *

biological target: CDK7/Cyclin H/MNAT1 (Homo sapiens, UniProt P50613); experiment: Competitive irreversible inhibition of CDK7/cyclinH/MAT1 (unknown origin) using 5-FAM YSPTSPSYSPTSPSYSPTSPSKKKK as substrate in presence of 2 mM ATP; type: protein-complex assay
Sequence (P51946 whole entry): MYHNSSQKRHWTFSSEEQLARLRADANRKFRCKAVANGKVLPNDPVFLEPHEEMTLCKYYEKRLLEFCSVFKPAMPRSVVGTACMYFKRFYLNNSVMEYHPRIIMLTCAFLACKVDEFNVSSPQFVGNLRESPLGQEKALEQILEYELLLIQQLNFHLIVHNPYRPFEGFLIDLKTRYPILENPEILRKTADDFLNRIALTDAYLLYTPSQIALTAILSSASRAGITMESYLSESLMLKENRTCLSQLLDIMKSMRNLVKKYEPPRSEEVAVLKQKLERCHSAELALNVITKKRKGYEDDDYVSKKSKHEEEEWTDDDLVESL
Sequence (P50613 whole entry): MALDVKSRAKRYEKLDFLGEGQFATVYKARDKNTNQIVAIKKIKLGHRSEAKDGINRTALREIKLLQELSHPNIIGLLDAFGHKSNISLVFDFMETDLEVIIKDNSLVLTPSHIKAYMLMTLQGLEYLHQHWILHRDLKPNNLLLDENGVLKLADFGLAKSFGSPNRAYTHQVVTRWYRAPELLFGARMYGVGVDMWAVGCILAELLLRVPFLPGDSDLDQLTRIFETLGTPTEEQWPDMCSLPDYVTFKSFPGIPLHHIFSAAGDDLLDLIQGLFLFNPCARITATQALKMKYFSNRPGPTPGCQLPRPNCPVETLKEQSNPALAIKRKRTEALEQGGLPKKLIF
Sequence (P51948 whole entry, further chain): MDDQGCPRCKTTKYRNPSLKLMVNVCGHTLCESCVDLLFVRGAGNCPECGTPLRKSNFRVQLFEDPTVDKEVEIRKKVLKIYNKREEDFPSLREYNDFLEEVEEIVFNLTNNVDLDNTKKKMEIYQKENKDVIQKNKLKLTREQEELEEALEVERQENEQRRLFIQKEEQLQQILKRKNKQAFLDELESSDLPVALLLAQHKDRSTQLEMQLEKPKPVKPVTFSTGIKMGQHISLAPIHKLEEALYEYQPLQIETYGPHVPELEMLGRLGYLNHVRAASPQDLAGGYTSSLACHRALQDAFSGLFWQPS
pIC50: −log10 of the molar value.
As shown below, each of these compounds has a reported pIC50 value.

>  <Input smiles>
CN(C)C/C=C/C(=O)Nc1ccc(C(=O)N[C@H]2CCC[C@@H](Nc3ncc(Cl)c(-c4c[nH]c5ccccc45)n3)C2)nc1

>  <pIC50>
6.69

$$$$
>  <Input smiles>
CN(C)C/C=C/C(=O)Nc1ccc(C(=O)N[C@@]2(C)CCC[C@@H](Nc3ncc(Cl)c(-c4c[nH]c5ccccc45)n3)C2)nc1

>  <pIC50>
6.23

$$$$
>  <Input smiles>
CN(C)C/C=C/C(=O)Nc1ccc(C(=O)N[C@H]2CCC[C@@H](Nc3ncc(Cl)c(-c4c[nH]c5ccccc45)n3)C2)cc1

>  <pIC50>
6.04

$$$$

* * *

system: HL-60; assay: Antiproliferative activity against human HL60 cells after 72 hrs by CellTiter-Glo assay; format: functional, cell-based; conditions: HL-60, 72 h
Item-by-item account of EC50

>  <Input smiles>
CN(C)C/C=C/C(=O)Nc1ccc(C(=O)N[C@H]2CCC[C@@H](Nc3ncc(Cl)c(-c4c[nH]c5ccccc45)n3)C2)nc1

>  <Units>
nM

>  <EC50>
3

$$$$
>  <Input smiles>
CN(C)C/C=C/C(=O)Nc1ccc(C(=O)N[C@H]2CCC[C@@H](Nc3ncc(Cl)c(-c4c[nH]c5ccccc45)n3)C2)cc1

>  <Units>
nM

>  <EC50>
13

$$$$
>  <Input smiles>
CN(C)C/C=C/C(=O)Nc1ccc(C(=O)N[C@@]2(C)CCC[C@@H](Nc3ncc(Cl)c(-c4c[nH]c5ccccc45)n3)C2)nc1

>  <Units>
nM

>  <EC50>
8

$$$$
>  <Input smiles>
CN(C)C/C=C/C(=O)Nc1ccc(C(=O)Nc2cccc(Nc3ncc(Cl)c(-c4c[nH]c5ccccc45)n3)c2)cc1

>  <Units>
nM

>  <EC50>
38

$$$$

* * *

biological target: Cyclin-dependent kinase 4/cyclin D1 (Homo sapiens); assay: Inhibition of human CDK4/cyclinD1
Sequence (P11802 whole entry): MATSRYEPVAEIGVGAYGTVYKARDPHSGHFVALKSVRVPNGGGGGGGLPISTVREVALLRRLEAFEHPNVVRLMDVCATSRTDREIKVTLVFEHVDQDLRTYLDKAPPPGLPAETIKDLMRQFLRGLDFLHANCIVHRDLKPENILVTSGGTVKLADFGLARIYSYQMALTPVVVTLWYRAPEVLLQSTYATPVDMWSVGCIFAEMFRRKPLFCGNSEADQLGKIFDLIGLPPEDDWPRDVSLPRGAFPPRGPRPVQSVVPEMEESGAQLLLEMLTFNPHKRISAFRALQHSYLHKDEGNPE
Sequence (P24385 whole entry, further chain): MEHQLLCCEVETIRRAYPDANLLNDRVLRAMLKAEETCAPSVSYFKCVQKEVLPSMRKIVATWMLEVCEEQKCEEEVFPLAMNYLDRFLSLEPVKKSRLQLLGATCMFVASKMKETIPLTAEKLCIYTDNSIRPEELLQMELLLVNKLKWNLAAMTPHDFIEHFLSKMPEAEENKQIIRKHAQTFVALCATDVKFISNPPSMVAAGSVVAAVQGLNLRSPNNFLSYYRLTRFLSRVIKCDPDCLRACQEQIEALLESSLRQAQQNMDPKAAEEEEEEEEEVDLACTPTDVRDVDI
pEC50: −log10 of the molar value.

>  <Compound>
CC(C)N1CCN(c2ccc(Nc3ncc4cc5n(c4n3)C3(CCCCC3)CNC5=O)nc2)CC1 [LEROCICLIB]

>  <pEC50>
> 7.00

$$$$
